Attribute: pKd
- measurement_target: T1, anti-Inf-B binding antibody
- T1 construct: also called anti-Inf-B antibody
- assay_procedure: SPR biosensor, anti-Inf-B antibody immobilised on Au substrate, BSA blocked
Ends that are not written are not given here.
The read-out pKd is expressed as -log10 of concentration in moles per litre.

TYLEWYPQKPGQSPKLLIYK (not fully specified (N-terminus), Synthetic 20-mer homologous to the FR2 region of the light chain; The label differs between experiments; also called L1 switching peptide; first peptide compound L1) [L1 peptide]	4.85

Query binder follows.
Problem: Consider the binder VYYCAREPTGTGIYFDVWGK (not fully specified (N-terminus), Synthetic 20-mer homologous to the FR3 or FR4 region of the heavy chain; The label differs between experiments; also called H2 switching peptide; fourth peptide compound H2) [H2 peptide] . State its measured pKd.
Solution: 4.25

Recorded values, source patent US20250341517A1.
